test system: ryegrass, Italian (Italian ryegrass, Lolium multiflorum); experiment: Test C greenhouse herbicide test, pre- and postemergence; format: in vivo; details: postemergence, 125 g ai/ha; scale 0 to 100, 0 no effect, 100 complete control
Each item that follows carries a reported Ryegrass, Italian plant response rating.
REPORTED_METRIC: Ryegrass, Italian plant response rating

{"MOLECULE": "Cc1nn(C)c(=O)c(-c2c([N+](=O)[O-])ccc3ccccc23)c1O [Compound 165]", "NUMBER": 55}
{"MOLECULE": "COC(=O)Oc1c(C)nn(C)c(=O)c1-c1ccc(F)c2ccccc12 [Compound 130]", "NUMBER": 95}
{"MOLECULE": "COC(=O)Oc1c(OC)nn(C)c(=O)c1-c1c(C)ccc2ccccc12 [Compound 136]", "NUMBER": 30}
{"MOLECULE": "COC(=O)Oc1c(C)nn(C)c(=O)c1-c1ccc(Br)c2ccccc12 [Compound 145]", "NUMBER": 30}
{"MOLECULE": "CC(=O)Oc1c(C)nn(C)c(=O)c1-c1c(C)sc2ccc(C(F)(F)F)cc12 [Compound 132]", "NUMBER": 95}

* * *

Each item that follows carries a reported Plant response rating (scale of 0 to 100), Deadnettle.
test system: deadnettle (henbit deadnettle, Lamium amplexicaule); assay: Test D controlled growth environment herbicide test, pre- and postemergence; format: in vivo; details: Preemergence, 31 g ai/ha
REPORTED_METRIC: Plant response rating (scale of 0 to 100), Deadnettle

{"COMPOUND": "Cn1nc(Br)c(O)c(-c2cccc3ccccc23)c1=O [Compound 20]", "ASSAY_TARGET": "deadnettle (henbit deadnettle, Lamium amplexicaule)", "NUMBER": 0}
{"COMPOUND": "Cc1nn(C)c(=O)c(-c2c(C)sc3c(C)cc(Cl)cc23)c1O [Compound 35]", "ASSAY_TARGET": "deadnettle (henbit deadnettle, Lamium amplexicaule)", "NUMBER": 0}
{"COMPOUND": "CCc1sc2c(C)cc(C)cc2c1-c1c(O)c(C)nn(C)c1=O [Compound 57]", "ASSAY_TARGET": "deadnettle (henbit deadnettle, Lamium amplexicaule)", "NUMBER": 0}
{"COMPOUND": "Cc1ccc2sc(Br)c(-c3c(O)c(C)nn(C)c3=O)c2c1 [Compound 79]", "ASSAY_TARGET": "deadnettle (henbit deadnettle, Lamium amplexicaule)", "NUMBER": 0}
{"COMPOUND": "Cc1cc(C)c2sc(C)c(-c3c(O)c(C)nn(C)c3=O)c2c1 [Compound 2]", "ASSAY_TARGET": "deadnettle (henbit deadnettle, Lamium amplexicaule)", "NUMBER": 0}

* * *

test system: ragweed (common ragweed, Ambrosia elatior); experiment: Test A greenhouse herbicide test, pre- and postemergence; assay type: in vivo; settings: Postemergence, 125 g ai/ha; 0 to 100 scale where 0 is no effect and 100 is complete control
Decision: Plant response rating, Ragweed >= 90 yields rule met, all other cases yield rule not met.

{"SMILES_STR": "COc1nn(C)c(=O)c(-c2c(C(F)F)ccc3ccccc23)c1O", "ASSAY_TARGET": "ragweed (common ragweed, Ambrosia elatior)", "GROUP_LABEL": "rule not met"}
{"SMILES_STR": "CCC(=O)Oc1c(C)nn(C)c(=O)c1-c1ccc(Cl)c2ccccc12", "ASSAY_TARGET": "ragweed (common ragweed, Ambrosia elatior)", "GROUP_LABEL": "rule met"}
{"SMILES_STR": "CCC(=O)Oc1c(C)nn(C)c(=O)c1-c1c(C)ccc2ccccc12", "ASSAY_TARGET": "ragweed (common ragweed, Ambrosia elatior)", "GROUP_LABEL": "rule not met"}
{"SMILES_STR": "Cc1nn(C)c(=O)c(-c2ccc(F)c3ccccc23)c1O", "ASSAY_TARGET": "ragweed (common ragweed, Ambrosia elatior)", "GROUP_LABEL": "rule not met"}

Entry source: patent US10597388B2
